Data provenance: patent US5294603A

Recorded CV-1 values for a group of molecules are listed next.
test system: CV-1 monkey kidney cells
Numbered stars: 1 amine (or outer) side, 2 acyl side, 3 side chain; on linkers, the order of the positions; unused ones are H or OH. Bridge positions count the residues as written; N and C are the ends. Square brackets hold non-standard residues; d marks the D form. Peptide text beside a SMILES is read from it. X4 = CC[C@H](C)[C@@H](N[*:1])[C@@H](O)CC(=O)O[C@@H](C(=O)[C@H](C)C(=O)[*:2])C(C)C; X7 = CC[C@H](C)[C@@H](N[*:1])[C@@H](O)CC(=O)O[C@H](C(=NO)[C@H](C)C(=O)[*:2])C(C)C; NMeY = CN[C@@H](Cc1ccc(O)cc1)C(=O)O; dNMeL = CN[C@H](CC(C)C)C(=O)O

{"molecule": "CC[C@H](C)[C@H]1NC(=O)[C@@H](NC(=O)[C@@H](CC(C)C)NC)[C@@H](C)OC(=O)[C@H](Cc2ccc(OC)cc2)N(C)C(=O)[C@@H]2CCCN2C(=O)[C@H](CC(C)C)NC(=O)[C@@H](C)C(=O)[C@@H](C(C)C)OC(=O)C[C@@H]1O [Epididemnin A (15), Epididemnin A] (H-[dNMeL]T[X4]LP[NMeY](Me); ester 2-C)", "test result": 0}

Here CC[C@H](C)[C@H]1NC(=O)[C@@H](NC(=O)[C@@H](CC(C)C)NC)[C@@H](C)OC(=O)[C@H](Cc2ccc(OC)cc2)N(C)C(=O)[C@@H]2CCCN2C(=O)[C@H](CC(C)C)NC(=O)[C@@H](C)C(=NO)[C@H](C(C)C)OC(=O)C[C@@H]1O [[HydroxyiminoHip^2]-Didemnin A (65), [HydroxyiminoHip^2]didemnin A] (H-[dNMeL]T[X7]LP[NMeY](Me); ester 2-C) was tested on CV-1 monkey kidney cells, and its CV-1 came to 0

---

Recorded Cytotoxicity L1210 IC50 values for a group of molecules are listed next.
tested on: L1210 murine leukemia cells; settings: Table 9
Numbered stars: 1 amine (or outer) side, 2 acyl side, 3 side chain; on linkers, the order of the positions; unused ones are H or OH. Bridge positions count the residues as written; N and C are the ends. Square brackets hold non-standard residues; d marks the D form. Peptide text beside a SMILES is read from it. X4 = CC[C@H](C)[C@@H](N[*:1])[C@@H](O)CC(=O)O[C@@H](C(=O)[C@H](C)C(=O)[*:2])C(C)C; X1 = CC[C@H](C)[C@@H](N[*:1])[C@@H](O)CC(=O)O[C@H](C(=O)[C@H](C)C(=O)[*:2])C(C)C; X3 = CC[C@H](C)[C@H](N[*:1])[C@@H](O)CC(=O)O[C@H](C(=O)[C@H](C)C(=O)[*:2])C(C)C; NMeY = CN[C@@H](Cc1ccc(O)cc1)C(=O)O; aThr = C[C@H](O)[C@H](N)C(=O)O; dNMeL = CN[C@H](CC(C)C)C(=O)O
State just the number; it will be interpreted in ng/mL.

Example cases with answers are listed next.
{"molecule": "CC[C@H](C)[C@@H]1NC(=O)[C@@H](NC(=O)[C@@H](CC(C)C)N(C)C(C)=O)[C@H](C)OC(=O)[C@H](Cc2ccc(OC)cc2)N(C)C(=O)[C@@H]2CCCN2C(=O)[C@H](CC(C)C)NC(=O)[C@@H](C)C(=O)[C@H](C(C)C)OC(=O)C[C@@H]1O [N-Acetyldidemnin A (54), N-Acetyl didemnin A] (Ac-[dNMeL][aThr][X3]LP[NMeY](Me); ester 2-C)", "Cytotoxicity L1210 IC50 (ng/mL)": 0.3}
{"molecule": "CC[C@H](C)[C@H]1NC(=O)[C@@H](NC(=O)[C@@H](CC(C)C)NC)[C@@H](C)OC(=O)[C@H](Cc2ccc(OC)cc2)N(C)C(=O)[C@@H]2CCCN2C(=O)[C@H](CC(C)C)NC(=O)[C@@H](C)C(=O)[C@@H](C(C)C)OC(=O)C[C@@H]1O [Epididemnin A (15), Epididemnin A] (H-[dNMeL]T[X4]LP[NMeY](Me); ester 2-C)", "Cytotoxicity L1210 IC50 (ng/mL)": 300}

Proceed to the following item.
Value of Cytotoxicity L1210 IC50 reported for the molecule CC[C@H](C)[C@H]1NC(=O)[C@@H](NC(=O)[C@@H](CC(C)C)N(C)C(=O)[C@@H]2CCCN2C(C)=O)[C@@H](C)OC(=O)[C@H](Cc2ccc(OC)cc2)N(C)C(=O)[C@@H]2CCCN2C(=O)[C@H](CC(C)C)NC(=O)[C@@H](C)C(=O)[C@H](C(C)C)OC(=O)C[C@@H]1O [[Acetyl^9]Didemnin B (103), [Acetyl^9]didemnin B] (Ac-P[dNMeL]T[X1]LP[NMeY](Me); ester 3-C) is 0.2

---

system: L1210; assay: L1210 cytotoxicity, inhibition at fixed doses (Table 10); assay type: cell-based, murine; details: dose 250 ng/mL, tested 4/22/1990
Numbered stars: 1 amine (or outer) side, 2 acyl side, 3 side chain; on linkers, the order of the positions; unused ones are H or OH. Bridge positions count the residues as written; N and C are the ends. Square brackets hold non-standard residues; d marks the D form. Peptide text beside a SMILES is read from it. X1 = CC[C@H](C)[C@@H](N[*:1])[C@@H](O)CC(=O)O[C@H](C(=O)[C@H](C)C(=O)[*:2])C(C)C; NMeY = CN[C@@H](Cc1ccc(O)cc1)C(=O)O; NMeCha = CN[C@@H](CC1CCCCC1)C(=O)O; dNMeL = CN[C@H](CC(C)C)C(=O)O
measurement kind: Inhibition (%)
State just the number; it will be interpreted in %.

{"molecule": "CC[C@H](C)[C@H]1NC(=O)[C@@H](NC(=O)[C@@H](CC(C)C)N(C)C(=O)[C@@H]2CCCN2C(=O)[C@H](C)O)[C@@H](C)OC(=O)[C@H](CC2CCC(OC)CC2)N(C)C(=O)[C@@H]2CCCN2C(=O)[C@H](CC(C)C)NC(=O)[C@@H](C)C(=O)[C@H](C(C)C)OC(=O)C[C@@H]1O (stereo partly shown) [[H6 Me2 Tyr^5]didemnin B (116), [HexahydroMe2 Tyr^5]didemnin B]", "target or system": "L1210", "measurement kind": "Inhibition (%)", "test result": 99}

Value of Inhibition (%) reported for the molecule CC[C@H](C)[C@H]1NC(=O)[C@@H](NC(=O)[C@@H](CC(C)C)NC)[C@@H](C)OC(=O)[C@H](CC2CCCCC2)N(C)C(=O)[C@@H]2CCCN2C(=O)[C@H](CC(C)C)NC(=O)[C@@H](C)C(=O)[C@H](C(C)C)OC(=O)C[C@@H]1O [[H6 -N-MePhe^5] didemnin A (117), [Hexahydro-N-MePhe^5]didemnin A] (H-[dNMeL]T[X1]LP[NMeCha]; ester 2-C) is 98

Value of Inhibition (%) reported for the molecule CC[C@H](C)[C@H]1NC(=O)[C@@H](NC(=O)[C@@H](CC(C)C)NC)[C@@H](C)OC(=O)[C@H](CC2CCC(OC)CC2)N(C)C(=O)[C@@H]2CCCN2C(=O)[C@H](CC(C)C)NC(=O)[C@@H](C)C(=O)[C@H](C(C)C)OC(=O)C[C@@H]1O (stereo partly shown) [[H6 Me2 Tyr^5]didemnin A (115), [HexahydroMe2 Tyr^5]didemnin A] is 94

Value of Inhibition (%) reported for the molecule CC[C@H](C)[C@H]1NC(=O)[C@@H](NC(=O)[C@@H](CC(C)C)NC)[C@@H](C)OC(=O)[C@H](Cc2ccc(OC)cc2)N(C)C(=O)[C@@H]2CCCN2C(=O)[C@H](CC(C)C)NC(=O)[C@@H](C)C(=O)[C@H](C(C)C)OC(=O)C[C@@H]1O [Didemnin A (1), Didemnin A, reference compound] (H-[dNMeL]T[X1]LP[NMeY](Me); ester 2-C) is 100

---

Recorded IC50 DNA values for a group of compounds are listed next.
test system: DNA synthesis in Nb2 node lymphoma cells; assay: Inhibition of ongoing DNA synthesis in prolactin-stimulated Nb2 cells; format: cell-based, rat; settings: Nb2 cells stimulated with prolactin for 24 h
Numbered stars: 1 amine (or outer) side, 2 acyl side, 3 side chain; on linkers, the order of the positions; unused ones are H or OH. Bridge positions count the residues as written; N and C are the ends. Square brackets hold non-standard residues; d marks the D form. Peptide text beside a SMILES is read from it. X1 = CC[C@H](C)[C@@H](N[*:1])[C@@H](O)CC(=O)O[C@H](C(=O)[C@H](C)C(=O)[*:2])C(C)C; X3 = CC[C@H](C)[C@H](N[*:1])[C@@H](O)CC(=O)O[C@H](C(=O)[C@H](C)C(=O)[*:2])C(C)C; NMeY = CN[C@@H](Cc1ccc(O)cc1)C(=O)O; aThr = C[C@H](O)[C@H](N)C(=O)O; dNMeL = CN[C@H](CC(C)C)C(=O)O
State just the number; it will be interpreted in ng/mL.

Example cases with answers are listed next.
{"compound": "CC[C@H](C)[C@H]1NC(=O)[C@@H](NC(=O)[C@@H](CC(C)C)N(C)C(=O)[C@@H]2CCCN2C(=O)C(C)O)[C@@H](C)OC(=O)[C@H](Cc2ccc(OC)cc2)N(C)C(=O)[C@@H]2CCCN2C(=O)[C@H](CC(C)C)NC(=O)[C@@H](C)C(=O)[C@H](C(C)C)OC(=O)C[C@@H]1O (stereo partly shown) [Didemnin B (17), Didemnin B, reference compound]", "target or system": "DNA synthesis in Nb2 node lymphoma cells", "readout units": "ng/mL", "IC50 DNA": 90}
{"compound": "CC[C@H](C)[C@@H]1NC(=O)[C@@H](NC(=O)[C@@H](CC(C)C)N(C)C(C)=O)[C@H](C)OC(=O)[C@H](Cc2ccc(OC)cc2)N(C)C(=O)[C@@H]2CCCN2C(=O)[C@H](CC(C)C)NC(=O)[C@@H](C)C(=O)[C@H](C(C)C)OC(=O)C[C@@H]1O [N-Acetyldidemnin A (54), N-Acetyl didemnin A] (Ac-[dNMeL][aThr][X3]LP[NMeY](Me); ester 2-C)", "target or system": "DNA synthesis in Nb2 node lymphoma cells", "readout units": "ng/mL", "IC50 DNA": 70}

Proceed to the following item.
Value of IC50 DNA reported for the compound CC[C@H](C)[C@H]1NC(=O)[C@@H](NC(=O)[C@@H](CC(C)C)NC)[C@@H](C)OC(=O)[C@H](Cc2ccc(OC)cc2)N(C)C(=O)[C@@H]2CCCN2C(=O)[C@H](CC(C)C)NC(=O)[C@@H](C)C(=O)[C@H](C(C)C)OC(=O)C[C@@H]1O [Didemnin A (1), Didemnin A, reference compound] (H-[dNMeL]T[X1]LP[NMeY](Me); ester 2-C) is 2000
